Taken from ChEMBL document CHEMBL5331088.

# Test system: Leishmania donovani
# assay.method.text: Antileishmanial activity against Leishmania donovani amastigotes infected in J774.A1 macrophage assessed as inhibition of parasite growth by luciferase assay
# Type: functional, organism-based
# cond: Leishmania donovani, J774.A1; read-out: IC50
endpoint: IC50 (µM)
Answers are plain numbers, in µM.

molecule	measurement.target	IC50 [µM]
O=C(Nc1ccc(Br)c(C(F)(F)F)c1)c1ccccc1O	Leishmania donovani	3.82
O=C(Nc1ccc([N+](=O)[O-])cc1F)c1ccccc1O	Leishmania donovani	4.06
O=C(Nc1ccc([N+](=O)[O-])cc1F)c1cc(Cl)ccc1O	Leishmania donovani	3.98

Working through the 6 molecules below one at a time, give IC50 for each.
1. O=C(Nc1cc(Cl)cc(Cl)c1)c1cc(Cl)ccc1O
2. O=C(Nc1ccc(F)c(F)c1)c1cc(Cl)ccc1O
3. O=C(Nc1cc(Cl)cc(Cl)c1)c1ccccc1O
4. O=C(Nc1ccc([N+](=O)[O-])cc1Cl)c1ccccc1O
5. O=C(Nc1ccc([N+](=O)[O-])cc1Cl)c1cc(Cl)ccc1O [NICLOSAMIDE]
6. O=C(Nc1ccc(Cl)cc1)c1cc(Cl)ccc1O

Response given:
[3.83, 3.54, 7.97, 3.27, 3.68, 2.09]

----------
# assay.method.text: Cytotoxicity against African green monkey Vero cells assessed as reduction in cell viability by MTT assay
# Assay type: toxicity, cell-based
# cond: chlorocebus sabaeus
endpoint: log10(CC50) (log10 of the value in µM)
Parameter value (number): base-10 log of CC50 in µM.

Observe how each entry below is paired with its result.
molecule	value.reported
O=C(Nc1ccc(Br)c(C(F)(F)F)c1)c1ccccc1O	0.64
O=C(Nc1ccc(F)c(Cl)c1)c1cc(Cl)ccc1O	1.16
O=C(Nc1ccc([N+](=O)[O-])cc1F)c1cc(Cl)ccc1O	0.51
O=C(Nc1ccc([N+](=O)[O-])cc1Cl)c1ccccc1O	0.86
O=C(Nc1ccc(Cl)c(C(F)(F)F)c1)c1cc(Cl)ccc1O	0.63
O=C(Nc1ccc(F)cc1[N+](=O)[O-])c1cc(Cl)ccc1O	1.34
O=C(Nc1cccc(C(F)(F)F)c1)c1cc(Cl)ccc1O	0.50
O=C(Nc1ccc(Br)cc1)c1cc(Cl)ccc1O	1.00

Field: log10(CC50). Fill in for each record below.
1. CCCCCCCCCCCCCCCCOP(=O)([O-])OCC[N+](C)(C)C [MILTEFOSINE]
2. O=C(Nc1ccc(Cl)cc1)c1cc(Cl)ccc1O

Response given:
[1.71, 1.21]
